// provenance: BigSolDB 2.1

# cond: in octyl acetate, 298.15 K

>  <smilesRepresentation>
O=C1OC(=O)[C@H]2[C@@H]1[C@H]1C=C[C@@H]2C1

>  <solubility (mole fraction)>
0.0576

$$$$

====

# cond: in n-hexyl acetate, 318.15 K

>  <smilesRepresentation>
O=C1OC(=O)[C@H]2[C@@H]1[C@H]1C=C[C@@H]2C1

>  <solubility (mole fraction)>
0.125

$$$$

====

# cond: in n-propyl acetate, 298.15 K
readoutName: solubility (mole fraction)

>  <smilesRepresentation>
O=C1OC(=O)[C@H]2[C@@H]1[C@H]1C=C[C@@H]2C1

>  <readoutName>
solubility (mole fraction)

>  <measuredResult>
0.112

$$$$
